- Tested on: colon carcinoma lines that do not carry the 677C/T mutation in MTHFR
- Experiment: Methotrexate added to colon carcinoma lines in culture (cell kill), lines without the MTHFR mutation
- Type: cell-based
- Reported conditions: colon carcinoma lines without the 677C/T MTHFR mutation; read-out: IC50 (concentration needed to kill half the cells)
Parameter: IC50

- Compound: "CN(Cc1cnc2nc(N)nc(N)c2n1)c1ccc(C(=O)N[C@@H](CCC(=O)O)C(=O)O)cc1 [methotrexate]"
  Experimental value: "~150 nM"
